system: TP A160S mutant (Homo sapiens, UniProt P21731, A160S)
Construct: HEK293T (calcium assays)
test-name: Intracellular calcium mobilization (Fluo-4NW) in transfected HEK293T cells
details: read-out: EC50 of agonist U46619 (calcium mobilized), transiently transfected HEK293T cells, mean ± S.E
observation-type: pEC50
As a rule, pEC50 stands for the negative log10 of the concentration, concentration in M.

CCCCC[C@H](O)/C=C/[C@@H]1[C@@H](C/C=C\CCCC(=O)O)[C@H]2CO[C@@H]1C2 has a reported pEC50 of 8.03

###

system: TP F115A mutant (Homo sapiens, UniProt P21731, F115A)
test-name: Intracellular calcium mobilization (Fluo-4NW) in transfected HEK293T cells
details: read-out: EC50 of agonist U46619 (calcium mobilized), transiently transfected HEK293T cells, mean ± S.E
observation-type: EC50 (nM)
Express the result in nM but write the number alone.

// EC50 (TP F115A mutant (Homo sapiens, UniProt P21731, F115A)) for CCCCC[C@H](O)/C=C/[C@@H]1[C@@H](C/C=C\CCCC(=O)O)[C@H]2CO[C@@H]1C2 [U46619] = 2

###

system: TP A160V mutant (Homo sapiens, UniProt P21731, A160V)
Construct: HEK293T (calcium assays)
test-name: Intracellular calcium mobilization (Fluo-4NW) in transfected HEK293T cells
details: read-out: EC50 of agonist U46619 (calcium mobilized), transiently transfected HEK293T cells, mean ± S.E
observation-type: pEC50
Just so you know, pEC50 here is -log10 of the concentration in molar units; reply with that number alone.

pEC50 reading for CCCCC[C@H](O)/C=C/[C@@H]1[C@@H](C/C=C\CCCC(=O)O)[C@H]2CO[C@@H]1C2 [U46619] : 8.02

###

system: TP A160V/F115A double mutant (Homo sapiens, UniProt P21731, A160V/F115A)
Sequence (P21731 1-343 F115A/A160V): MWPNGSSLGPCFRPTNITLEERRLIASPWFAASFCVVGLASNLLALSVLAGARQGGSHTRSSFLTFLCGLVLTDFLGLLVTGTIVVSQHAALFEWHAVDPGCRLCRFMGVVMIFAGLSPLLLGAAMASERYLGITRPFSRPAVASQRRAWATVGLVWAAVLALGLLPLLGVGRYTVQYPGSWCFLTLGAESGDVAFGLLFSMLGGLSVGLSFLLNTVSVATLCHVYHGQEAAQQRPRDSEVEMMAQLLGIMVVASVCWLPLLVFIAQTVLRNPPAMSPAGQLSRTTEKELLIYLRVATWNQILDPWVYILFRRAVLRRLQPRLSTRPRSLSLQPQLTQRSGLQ
test-name: Intracellular calcium mobilization (Fluo-4NW) in transfected HEK293T cells
Format: cell-based
Set-up: expressed in transfected cells; transient, pMT4
details: read-out: EC50 of agonist U46619 (calcium mobilized), transiently transfected HEK293T cells, mean ± S.E
observation-type: pEC50
Units for pEC50: none; it is -log10 of a concentration expressed in mol/L.

Consider CCCCC[C@H](O)/C=C/[C@@H]1[C@@H](C/C=C\CCCC(=O)O)[C@H]2CO[C@@H]1C2 . Its measured pEC50 is 7.36

###

system: TP A160S mutant (Homo sapiens, UniProt P21731, A160S)
Construct: HEK293T (calcium assays)
test-name: Heterologous competition binding, unlabeled U46619 against 4 nM [3H] SQ 29,548
details: read-out: Ki of agonist U46619, 4 nM [3H] SQ 29,548, 2 hr room temperature, Cheng-Prusoff from IC50
observation-type: pKi
Formally, pKi is defined as -log10 of the concentration c, with c in mol/L.

Given item CCCCC[C@H](O)/C=C/[C@@H]1[C@@H](C/C=C\CCCC(=O)O)[C@H]2CO[C@@H]1C2 [U46619] , the value recorded as its pKi is 5.82

###

system: TP F107A mutant (Homo sapiens, UniProt P21731, F107A)
Construct: HEK293T (calcium assays)
test-name: Intracellular calcium mobilization (Fluo-4NW) in transfected HEK293T cells
details: read-out: EC50 of agonist U46619 (calcium mobilized), transiently transfected HEK293T cells, mean ± S.E
observation-type: EC50 (nM)
Expressed in nM, but write only the number.

Consider CCCCC[C@H](O)/C=C/[C@@H]1[C@@H](C/C=C\CCCC(=O)O)[C@H]2CO[C@@H]1C2 . Its measured EC50 is 2.5

###

system: TP G164A mutant (Homo sapiens, UniProt P21731, G164A)
Construct: HEK293T (calcium assays)
test-name: Intracellular calcium mobilization (Fluo-4NW) in transfected HEK293T cells
details: read-out: EC50 of agonist U46619 (calcium mobilized), transiently transfected HEK293T cells, mean ± S.E
observation-type: EC50 (nM)
The reply should contain only the number, in nM.

For CCCCC[C@H](O)/C=C/[C@@H]1[C@@H](C/C=C\CCCC(=O)O)[C@H]2CO[C@@H]1C2 [U46619] the compound record lists EC50 as 2.5
